Attribution: PubChem BioAssay (NCATS)

METHOD_DESCRIPTION: qHTS of pediatric cancer cell lines to identify multiple opportunities for drug repurposing: Confirmatory screen for SK-N-SH cells (AID 1347129);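 also: cells exposed to compound for 48 h before viability read; nearly all actives have a fitted effect of over 60% in size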
TEST_CONDITIONS: SK-N-SH neuroblastoma cell viability; series mostly up to 46.1 µM
Records with an inconclusive call do not appear. The source made the active and inactive calls. Calls follow the shape of the dose curve; as a rule, active = well fitted cell-killing curve with a large enough effect; inconclusive = small, poorly fitted or top-dose-only effect; inactive = flat fitted curve, though single readings scatter.
Entry note: the call must match one of YES = active, NO = inactive

Query block: Which result was noted for this molecule in the test: COc1cc2ncnc(Nc3cccc(Br)c3)c2cc1OC
Result block: YES

Query block: Which result was noted for this molecule in the test: C[C@H](NCc1ccc2c(c1)nc(NC(=O)c1ccc(-c3cn[nH]c3)s1)n2CCc1ccccc1)C(C)(C)C
Result block: YES

Query block: Which result was noted for this molecule in the test: COc1cccc2c1C(=O)c1c(O)c3c(c(O)c1C2=O)C[C@@](O)(C(=O)CO)C[C@H]3O[C@H]1C[C@H](N)[C@H](O)[C@H](C)O1
Result block: YES

Query block: Which result was noted for this molecule in the test: CCS(=O)(=O)Nc1ccc2[nH]c(O)c(C(=Nc3ccc(CN4CCCCC4)cc3)c3ccccc3)c2c1
Result block: YES

Query block: Which result was noted for this molecule in the test: O=C1NC(=O)C(=Cc2ccc3nccc(-c4ccncc4)c3c2)S1
Result block: YES

Query block: Which result was noted for this molecule in the test: CCOC(=O)C1=C(C)NC(=S)NC1c1cccc(O)c1 (configuration not stated)
Result block: NO

Query block: Which result was noted for this molecule in the test: Oc1ccc(-c2ccc(-c3cc(Nc4cccc(CNC5CC5)c4)n[nH]3)cc2)c(O)c1
Result block: NO

Query block: Which result was noted for this molecule in the test: O=C(NCc1ccccc1)[C@H](Cc1ccccc1)NC(=O)[C@@H]1O[C@@H]1C(=O)NCCc1ccc(O)cc1
Result block: NO

Query block: Which result was noted for this molecule in the test: CC(C(C)N1CC(=O)NC(=O)C1)N1CC(=O)NC(=O)C1 (configuration not stated)
Result block: NO

Query block: Which result was noted for this molecule in the test: CC(C)C[C@H](NC(=O)CNC(=O)c1cc(Cl)ccc1Cl)B1OC(=O)CC(CC(=O)O)(C(=O)O)O1 (some centres not stated)
Result block: NO

Query block: Which result was noted for this molecule in the test: Cn1cnc(=N)c2[nH]cnc21
Result block: NO

Query block: Which result was noted for this molecule in the test: CCCCC(=O)O[C@]1(C(=O)CO)[C@@H](C)C[C@H]2[C@@H]3CCC4=CC(=O)C=C[C@]4(C)[C@@]3(F)[C@@H](O)C[C@@]21C
Result block: NO
